system-name: transferrin receptor (hTfR) (Homo sapiens)
experimental-protocol: Intermolecular interaction evaluation test between transferrin receptor (hTfR) and peptide by surface plasmon resonance (SPR)
Type: binding
study-conditions: surface plasmon resonance, hTfR; read-out: KD value for hTfR by SPR (class symbol)
Experimental: For each of the various synthesized peptides, the intermolecular interaction of the peptide with the transferrin receptor (hTfR) was tested by surface plasmon resonance (SPR) according to the following method. The specific test method is as follows. […]

compound	system-name	Kd
CC[C@H](C)[C@@H]1NC(=O)[C@H](Cc2ccc(OC)cc2)NC(=O)[C@H](Cc2ccc(O)cc2)NC(=O)[C@H](CC(N)=O)NC(=O)[C@H](Cc2c[nH]c3ccccc23)N(C)C(=O)[C@H](C(C)C)NC(=O)[C@H](Cc2cccc(Cl)c2)N(C)C(=O)[C@H](C(C)C)NC(=O)[C@H](C)NC(=O)CSC[C@@H](C(N)=O)NC(=O)[C@H](Cc2ccc(O)cc2)N(C)C(=O)[C@H](Cc2ccccc2)NC(=O)[C@@H](C)NC(=O)[C@H](CCCCN)NC(=O)[C@H]([C@@H](C)CC)NC1=O [compound 372]	transferrin receptor (hTfR) (Homo sapiens)	0.001 to 0.1 µM

====

system-name: transferrin receptor (hTfR) (Homo sapiens, UniProt P02786)
Sequence (P02786 whole entry): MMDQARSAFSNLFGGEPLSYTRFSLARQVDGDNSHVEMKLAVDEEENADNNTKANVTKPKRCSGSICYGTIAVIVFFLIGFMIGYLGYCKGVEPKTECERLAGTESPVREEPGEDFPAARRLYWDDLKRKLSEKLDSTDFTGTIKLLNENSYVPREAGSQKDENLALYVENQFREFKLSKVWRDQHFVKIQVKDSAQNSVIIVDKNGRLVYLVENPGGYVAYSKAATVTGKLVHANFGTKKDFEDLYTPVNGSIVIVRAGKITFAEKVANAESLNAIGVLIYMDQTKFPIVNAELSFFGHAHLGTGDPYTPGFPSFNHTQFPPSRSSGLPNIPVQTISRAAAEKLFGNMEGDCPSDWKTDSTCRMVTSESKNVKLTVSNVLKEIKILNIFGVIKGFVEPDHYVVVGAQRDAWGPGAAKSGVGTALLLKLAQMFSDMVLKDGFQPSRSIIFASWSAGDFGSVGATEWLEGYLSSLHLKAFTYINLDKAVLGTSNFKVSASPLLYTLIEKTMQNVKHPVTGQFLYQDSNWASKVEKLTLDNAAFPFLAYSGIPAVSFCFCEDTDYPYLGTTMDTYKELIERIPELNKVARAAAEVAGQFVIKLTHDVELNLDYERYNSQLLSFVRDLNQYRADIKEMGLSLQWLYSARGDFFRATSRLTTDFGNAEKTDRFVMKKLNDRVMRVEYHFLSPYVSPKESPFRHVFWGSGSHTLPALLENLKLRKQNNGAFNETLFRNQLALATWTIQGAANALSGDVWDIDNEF
experimental-protocol: Intermolecular interaction evaluation test between transferrin receptor (hTfR) and peptide by surface plasmon resonance (SPR)
Assay type: binding
study-conditions: binding to hTfR by SPR; Table 2 peptides; read-out: KD value (SPR) class
pKd: −log10 of the molar value.
Catalogue of compounds with associated pKd

compound	pKd
CC[C@H](C)[C@@H]1NC(=O)[C@H](Cc2ccc(O)cc2)NC(=O)[C@H](Cc2ccc(O)cc2)NC(=O)[C@H](CC(N)=O)NC(=O)[C@H](Cc2c[nH]c3ccccc23)NC(=O)[C@H](C(C)C)NC(=O)[C@H](Cc2ccccc2)NC(=O)[C@H](CCCCN)NC(=O)[C@H](C)NC(=O)CSC[C@@H](C(N)=O)NC(=O)[C@H](Cc2ccc(O)cc2)N(C)C(=O)[C@H](Cc2ccc(O)cc2)NC(=O)[C@H](CCCNC(=N)N)NC(=O)[C@H](CCCNC(=N)N)NC(=O)[C@H]([C@@H](C)CC)NC1=O [compound 238]	7.00 to 9.00
CC[C@H](C)[C@@H]1NC(=O)[C@H](Cc2ccc(O)cc2)NC(=O)[C@H](Cc2ccc(O)cc2)NC(=O)[C@H](CC(N)=O)NC(=O)[C@H](Cc2c[nH]c3ccccc23)NC(=O)[C@H](C(C)C)NC(=O)[C@H](Cc2ccccc2)NC(=O)[C@H](C(C)C)NC(=O)[C@H](C)NC(=O)CSC[C@@H](C(N)=O)NC(=O)[C@H](Cc2ccc(O)cc2)N(C)C(=O)[C@H](Cc2ccc(O)cc2)NC(=O)[C@H](CCCNC(=N)N)NC(=O)[C@H](CCCNC(=N)N)NC(=O)[C@H](CCCNC(=N)N)NC1=O [compound 248]	7.00 to 9.00

====

pKd reference
system-name: transferrin receptor (hTfR) (Homo sapiens, UniProt P02786)
experimental-protocol: Intermolecular interaction evaluation test between transferrin receptor (hTfR) and peptide by surface plasmon resonance (SPR)
Type: binding
study-conditions: SPR, hTfR; class symbols A-D; read-out: KD (column without head, continuation of the table series)
pKd: −log10 of the molar value.

molecule	pKd
CC[C@H](C)[C@@H]1NC(=O)[C@H](Cc2ccc(O)cc2)NC(=O)[C@H](Cc2ccc(O)cc2)NC(=O)[C@H](CC(N)=O)NC(=O)[C@H](Cc2c[nH]c3ccccc23)NC(=O)[C@H](C(C)C)NC(=O)[C@H](Cc2ccccc2)N(C)C(=O)[C@H](C(C)C)NC(=O)[C@H](C)NC(=O)CSC[C@@H](C(=O)NCC(=O)N[C@@H](CCCCN)C(N)=O)NC(=O)[C@H](Cc2ccc(O)cc2)N(C)C(=O)[C@H](Cc2ccc(O)cc2)NC(=O)[C@H](CCCNC(=N)N)NC(=O)[C@H](CCCCN)NC(=O)[C@H]([C@@H](C)CC)NC1=O [compound 526]	7.00 to 9.00
CC[C@H](C)[C@@H]1NC(=O)[C@H](Cc2ccc(OC)cc2)NC(=O)[C@H](Cc2ccc(O)cc2)NC(=O)[C@H](CC(N)=O)NC(=O)[C@H](Cc2c[nH]c3ccccc23)NC(=O)[C@H](C(C)C)NC(=O)[C@H](Cc2cccc(Cl)c2)N(C)C(=O)[C@H](C(C)C)NC(=O)[C@H](C)NC(=O)CSC[C@@H](C(=O)NCCOCCOCCOCCOCCC(N)=O)NC(=O)[C@H](Cc2ccc(O)cc2)N(C)C(=O)[C@H](Cc2ccccc2)NC(=O)[C@H](CCCNC(=N)N)NC(=O)[C@H](CCCCN)NC(=O)[C@H]([C@@H](C)CC)NC1=O [compound 503]	> 9.00
CC[C@H](C)[C@@H]1NC(=O)[C@H](Cc2ccc(OCCN)cc2)NC(=O)[C@H](Cc2ccc(O)cc2)NC(=O)[C@H](CC(N)=O)NC(=O)[C@H](Cc2c[nH]c3ccccc23)NC(=O)[C@H](C(C)C)NC(=O)[C@H](Cc2ccccc2)N(C)C(=O)[C@H](C(C)C)NC(=O)[C@H](C)NC(=O)CSC[C@@H](C(N)=O)NC(=O)[C@H](Cc2ccc(O)cc2)N(C)C(=O)[C@H](Cc2ccccc2)NC(=O)[C@H](CCCNC(=N)N)NC(=O)[C@H](CCCCN)NC(=O)[C@H]([C@@H](C)CC)NC1=O [compound 521]	7.00 to 9.00
CC[C@H](C)[C@@H]1NC(=O)[C@H](Cc2ccc(OCCN)cc2)NC(=O)[C@H](Cc2ccc(O)cc2)NC(=O)[C@H](CC(N)=O)NC(=O)[C@H](Cc2c[nH]c3ccccc23)NC(=O)[C@H](C(C)C)NC(=O)[C@H](Cc2ccccc2)N(C)C(=O)[C@H](C(C)C)NC(=O)[C@H](C)NC(=O)CSC[C@@H](C(N)=O)NC(=O)[C@H](Cc2ccc(O)cc2)N(C)C(=O)[C@H](Cc2ccccc2)NC(=O)[C@H](CCCNC(=N)N)NC(=O)C(C)(C)NC(=O)[C@H]([C@@H](C)CC)NC1=O [compound 524]	6.00 to 7.00
CC[C@H](C)[C@@H]1NC(=O)[C@H](Cc2ccc(OCCN)cc2)NC(=O)[C@H](Cc2ccc(O)cc2)NC(=O)[C@H](CC(N)=O)NC(=O)[C@H](Cc2c[nH]c3ccccc23)NC(=O)[C@H](C(C)C)NC(=O)[C@H](Cc2ccccc2)N(C)C(=O)[C@H](C(C)C)NC(=O)[C@H](C)NC(=O)CSC[C@@H](C(N)=O)NC(=O)[C@H](Cc2ccc(O)cc2)N(C)C(=O)[C@H](Cc2ccccc2)NC(=O)[C@H](CCCNC(=N)N)NC(=O)[C@H](CCCNC(=N)N)NC(=O)[C@H]([C@@H](C)CC)NC1=O [compound 522]	6.00 to 7.00
CC[C@H](C)[C@@H]1NC(=O)[C@H](Cc2ccc(O)cc2)NC(=O)[C@H](Cc2ccc(O)cc2)NC(=O)[C@H](CC(N)=O)NC(=O)[C@H](Cc2c[nH]c3ccccc23)NC(=O)[C@H](C(C)C)NC(=O)[C@H](Cc2ccccc2)N(C)C(=O)[C@H](C(C)C)NC(=O)[C@H](C)NC(=O)CSC[C@@H](C(=O)NCC(=O)N[C@@H](CCCCN)C(N)=O)NC(=O)[C@H](Cc2ccc(O)cc2)N(C)C(=O)[C@H](Cc2ccc(O)cc2)NC(=O)[C@H](CCCNC(=N)N)NC(=O)[C@H](CCCNC(=N)N)NC(=O)[C@H]([C@@H](C)CC)NC1=O [compound 525]	7.00 to 9.00
CC[C@H](C)[C@@H]1NC(=O)[C@H](Cc2ccc(OCCN)cc2)NC(=O)[C@H](Cc2ccc(O)cc2)NC(=O)[C@H](CC(N)=O)NC(=O)[C@H](Cc2c[nH]c3ccccc23)NC(=O)[C@H](C(C)C)NC(=O)[C@H](Cc2ccccc2)N(C)C(=O)[C@H](C(C)C)NC(=O)[C@H](C)NC(=O)CSC[C@@H](C(N)=O)NC(=O)[C@H](Cc2ccc(O)cc2)N(C)C(=O)[C@H](Cc2ccccc2)NC(=O)[C@@H](CCCNC(=N)N)NC(=O)[C@H](CCCNC(=N)N)NC(=O)[C@H]([C@@H](C)CC)NC1=O [compound 523]	6.00 to 7.00
CC[C@H](C)[C@@H]1NC(=O)[C@H](Cc2ccc(O)cc2)NC(=O)[C@H](Cc2ccc(O)cc2)NC(=O)[C@H](CC(N)=O)NC(=O)[C@H](Cc2c[nH]c3ccc(Cl)cc23)NC(=O)[C@H](C(C)C)NC(=O)[C@H](Cc2ccc(F)cc2)N(C)C(=O)[C@H](C(C)C)NC(=O)[C@H](C)NC(=O)CSC[C@@H](C(N)=O)NC(=O)[C@H](Cc2ccc(O)cc2)N(C)C(=O)[C@H](Cc2ccccc2)NC(=O)[C@H](CCCCNC(=O)CCOCCOCCOCCOC)NC(=O)[C@H](CCCNC(=N)N)N(C)C(=O)[C@H]([C@@H](C)CC)NC1=O [compound 489]	6.00 to 7.00
CC[C@H](C)[C@@H]1NC(=O)[C@H](Cc2ccc(OC)cc2)NC(=O)[C@H](Cc2ccc(O)cc2)NC(=O)[C@H](CC(N)=O)NC(=O)[C@H](Cc2c[nH]c3ccccc23)NC(=O)[C@H](C(C)C)NC(=O)[C@H](Cc2cccc(Cl)c2)N(C)C(=O)[C@H](C(C)C)NC(=O)[C@H](C)NC(=O)CSC[C@@H](C(=O)NCCOCCOCCOCCOCCC(N)=O)NC(=O)[C@H](Cc2ccc(O)cc2)N(C)C(=O)[C@H](Cc2ccccc2)NC(=O)[C@H](CCCNC(=N)N)NC(=O)[C@H](CCCNC(=N)N)NC(=O)[C@H]([C@@H](C)CC)NC1=O [compound 502]	> 9.00

Provenance of the data: patent US20230203098A1
